src = ChEMBL document CHEMBL1138950

assayDetails: Liver concentration in rat at 10 mg/kg, po after 2 hrs
Type: ADME, organism-based
Design: dose 10 mg/kg, route oral
measurementContext: read-out: Drug uptake

smi: O=C(O)c1ccc2c(c1)nc(-c1ccc(OCc3cc(N4CCCC4=O)ccc3-c3ccc(Cl)cc3)cc1F)n2C1CCCCC1
concentration at 2 h, µM: 78.5

###

System: Hepatitis C virus
assayDetails: Inhibition of HCV subgenomic RNA replication in Huh5-2 cells after 48 hrs by replicon assay
Format: functional, organism-based, Hepacivirus hominis
measurementContext: Huh-5-2, 48 h
log10(EC50) values, listed per item
recordedMetric: log10(EC50) (log10 of the value in µM)

smi: CC(=O)Nc1ccc(-c2ccc(Cl)cc2)c(COc2ccc(-c3nc4cc(C(=O)O)ccc4n3C3CCCCC3)cc2)c1
targetOrSystem: Hepatitis C virus
log10(EC50): 0.11

smi: CN(C)C(=O)c1ccc(-c2ccc(Cl)cc2)c(COc2ccc(-c3nc4cc(C(=O)O)ccc4n3C3CCCCC3)c(F)c2)c1
targetOrSystem: Hepatitis C virus
log10(EC50): -0.80

smi: O=C(O)c1ccc2c(c1)nc(-c1ccc(OCc3ncccc3-c3ccc(Cl)cc3)cc1)n2C1CCCCC1
targetOrSystem: Hepatitis C virus
log10(EC50): 0.59

smi: O=C(O)c1ccc2c(c1)nc(-c1ccc(OCc3cc(C(=O)N4CCCCC4)ccc3-c3ccc(Cl)cc3)cc1F)n2C1CCCCC1
targetOrSystem: Hepatitis C virus
log10(EC50): -0.57

smi: O=C(O)c1ccc2c(c1)nc(-c1ccc(OCc3cc(Cl)ccc3-c3ccc(Cl)cc3)cc1)n2C1CCCCC1
targetOrSystem: Hepatitis C virus
log10(EC50): 0.48

###

targetOrSystem: RNA-directed RNA polymerase (Hepacivirus hominis, UniProt O39930)
Sequence (O39930 whole entry, the tested form may be a part): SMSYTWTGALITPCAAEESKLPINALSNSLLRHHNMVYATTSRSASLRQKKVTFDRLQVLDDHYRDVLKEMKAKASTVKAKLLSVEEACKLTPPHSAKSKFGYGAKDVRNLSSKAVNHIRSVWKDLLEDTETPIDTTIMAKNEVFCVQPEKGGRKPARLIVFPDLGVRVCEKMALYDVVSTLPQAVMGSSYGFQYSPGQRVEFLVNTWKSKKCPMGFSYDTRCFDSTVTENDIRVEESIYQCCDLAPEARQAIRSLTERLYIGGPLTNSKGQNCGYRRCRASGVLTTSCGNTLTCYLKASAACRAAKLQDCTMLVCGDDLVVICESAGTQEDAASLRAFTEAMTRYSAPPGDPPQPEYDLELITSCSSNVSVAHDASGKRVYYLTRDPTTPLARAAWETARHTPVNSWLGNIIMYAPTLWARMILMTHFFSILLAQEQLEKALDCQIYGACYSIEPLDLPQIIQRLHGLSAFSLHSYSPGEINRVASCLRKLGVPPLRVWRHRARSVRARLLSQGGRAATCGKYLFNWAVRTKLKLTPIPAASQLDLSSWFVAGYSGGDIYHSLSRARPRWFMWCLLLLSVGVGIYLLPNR
assayDetails: Inhibition of HCV 1b BK six His-tagged C-terminal truncated 544 amino acid NS5B RNA dependent RNA polymerase
Design: species or system Hepatitis C virus subtype 1b
recordedMetric: IC50 (nM)

smi: CN(C)C(=O)c1ccc(-c2ccc(Cl)cc2)c(COc2ccc(-c3nc4cc(C(=O)O)ccc4n3C3CCCCC3)cc2)c1
unitSpec: nM
assayValue: 15
--
smi: O=C(O)c1ccc2c(c1)nc(-c1ccc(OCc3cc(C(=O)NCc4ccccc4)ccc3-c3ccc(Cl)cc3)cc1)n2C1CCCCC1
unitSpec: nM
assayValue: 29
--
smi: O=C(O)c1ccc2c(c1)nc(-c1ccc(OCc3ccccc3-c3ccccc3)cc1F)n2C1CCCCC1
unitSpec: nM
assayValue: 100
--
smi: CNC(=O)c1ccc(-c2ccc(Cl)cc2)c(COc2ccc(-c3nc4cc(C(=O)O)ccc4n3C3CCCCC3)c(F)c2)c1
unitSpec: nM
assayValue: 12

###

Documented pIC50 across a set of compounds
targetOrSystem: RNA-directed RNA polymerase (Hepacivirus hominis, UniProt O39930)
assayDetails: Inhibition of HCV 1b BK six His-tagged C-terminal truncated 544 amino acid NS5B RNA dependent RNA polymerase
Set-up: species or system Hepatitis C virus subtype 1b
pIC50: −log10 of the molar value.

smi: O=C(O)c1ccc(-c2ccc(Cl)cc2)c(COc2ccc(-c3nc4cc(C(=O)O)ccc4n3C3CCCCC3)cc2)c1
pIC50: 7.62
//
smi: NC(=O)c1ccc(-c2ccc(Cl)cc2COc2ccc(-c3nc4cc(C(=O)O)ccc4n3C3CCCCC3)cc2)cc1
pIC50: 7.16
//
smi: Cc1ncc(COc2ccc(-c3nc4cc(C(=O)O)ccc4n3C3CCCCC3)cc2)c(-c2ccc(Cl)cc2)n1
pIC50: 7.06
//
smi: Cc1nc(-c2ccc(Cl)cc2)c(COc2ccc(-c3nc4cc(C(=O)O)ccc4n3C3CCCCC3)cc2)s1
pIC50: 7.05
